Provide the recorded normalized growth for the entries that follow.
# TEST PROTOCOL: chemical genetic growth profiling, strain panel (AID 1159580);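 note: tested at 20 µM; growth read once vehicle control cultures reached saturation at 30 °C; 1 = growth at the plate median or of vehicle wells; lower values mean less growth of the strain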
# TEST PARAMETERS: S. cerevisiae deletion strains, growth OD, locus YDR101C, strain arx1, hits give low values
Out of some 5,500 compounds screened, about 2,000 (36%) were called active. Roughly 18% stayed inconclusive and do not appear here. The list shows a part of the results.
Kindly provide the number alone.

### Prompt I'd like to know its normalized growth. The molecule in question is CC(=O)OC1CC(OC(C)=O)C2(C)C(CC(OC(C)=O)C3(C)C2CCC2(C)C(c4ccoc4)CC4OC423)C1(C)C (centres undefined)
### Response 0.998

### Prompt One more molecule: CO[C@H]1/C=C/O[C@@]2(C)Oc3c(C)c(O)c4c(O)c(c(/C=N/N5CCN(C)CC5)c(O)c4c3C2=O)NC(=O)/C(C)=C\C=C\C(C)[C@H](O)[C@@H](C)[C@@H](O)[C@@H](C)[C@@H](OC(C)=O)[C@@H]1C (some centres undefined)
### Response 1.01

### Prompt One more molecule: CNc1ccccc1C(=O)O
### Response 1

### Prompt One more molecule: CC1(C)C(O)CC(O)C2(C)C1CC(O)C1(C)C2CCC2(C)C(c3ccoc3)CC3OC321 (centres undefined)
### Response 0.987

### Prompt One more molecule: CCN(CC)CCNC(=O)c1cc(S(C)(=O)=O)ccc1OC
### Response 0.991

### Prompt One more molecule: O=C1CCCC2C3CC(CN12)[C@@H]1CCCCN1C3 (some centres undefined)
### Response 0.988

### Prompt One more molecule: C1CCN2CC3CC(CN4CCCCC34)C2C1 (centres undefined)
### Response 1.01

### Prompt One more molecule: O=C(O)c1cccnc1Nc1cccc(C(F)(F)F)c1
### Response 0.967

### Prompt One more molecule: CC(=O)O[C@@H]1CC2C(C)(C)C=CC(=O)[C@]2(C)C2CC[C@@]3(C)[C@H](c4ccoc4)OC(=O)C4OC43[C@@]21C (some centres undefined)
### Response 1
